Kindly supply the reported protein stability index values for the records listed here.
B1: PRPH (parent)
chain: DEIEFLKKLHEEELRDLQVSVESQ

# Variants of: B1
# protocol: protein stability index of a GFP-peptide fusion (GPS, HEK-293T) (PSI 1-6); higher = more stable;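 also: lentivirally expressed fusions sorted by FACS into six bins by GFP to DsRed ratio, PSI derived from sequencing read proportions per bin multiplied by bin number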
# run-parameters: c terminus: a fixed tail appended
Numbers only.

Use these answered entries as a reference point.
Look up protein stability index for this variant: `L6C`
5.09

Look up protein stability index for this variant: `L14R`
5.22

Look up protein stability index for this variant: `H10S`
5.18

Look up protein stability index for this variant: `L6K`
4.99

The following variants each have a reported value; give each one's protein stability index.
1. D1P
2. S23V
3. E11R
4. E4H
5. Q18F
6. E22A
7. Q18G
8. Q18C

4.53
4.59
4.23
4.55
3.36
4.47
5
4.86

The following variants each have a reported value; give each one's protein stability index.
1. E11L
2. Q18A
3. K7W
4. E12T

1: 4.11; 2: 4.46; 3: 1.96; 4: 4.43
